# experimental.target: Adenosine receptor A3 (Homo sapiens)
# Sequence (P0DMS8 whole entry): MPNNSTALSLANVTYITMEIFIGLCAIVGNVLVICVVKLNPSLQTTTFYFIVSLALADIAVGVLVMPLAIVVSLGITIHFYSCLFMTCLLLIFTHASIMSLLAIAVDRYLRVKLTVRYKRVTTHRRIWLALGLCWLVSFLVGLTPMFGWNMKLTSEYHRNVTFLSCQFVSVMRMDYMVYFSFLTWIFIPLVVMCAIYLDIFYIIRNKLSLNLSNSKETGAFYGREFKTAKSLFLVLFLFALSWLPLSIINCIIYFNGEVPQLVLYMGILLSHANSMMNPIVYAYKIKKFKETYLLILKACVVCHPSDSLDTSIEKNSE
# experimental.details: Competition Radioligand Binding Assay: A3 Adenosine Receptor:Competitive assays were carried out by incubation of membranes from human A3 receptors transfected to CHO cells, [3H]-NECA, buffer (20 mM HEPES (pH 7.4), 100 mM NaCl, 10 mM MgCl2, 2 units/ml adenosine deaminase), and unlabelled ligand in a total volume of 0.2 ml for 60 min at 25° C. R-PIA was used to determine nonspecific binding. It was filtered over Schleicher & Schuell GF/52 (presoaked with 0.5% polyethyleneimine) in a Brandel cell harvester. The unbound radioligand was removed with 3×250 μl of 20 mM HEPES (pH 7.4), 100 mM NaCl, 10 mM MgCl2.
readout.label: Ki (nM)
Please reply with the bare figure in nM and do not write the unit itself.

# Ki lookup, item COc1ccc(-c2nc(NC(=O)c3ccc(N4CCC(C(=O)O)CC4)nc3)sc2C#N)cc1
47.6

---

# experimental.target: Adenosine receptor A2b (Homo sapiens)
# Sequence (P29275 whole entry): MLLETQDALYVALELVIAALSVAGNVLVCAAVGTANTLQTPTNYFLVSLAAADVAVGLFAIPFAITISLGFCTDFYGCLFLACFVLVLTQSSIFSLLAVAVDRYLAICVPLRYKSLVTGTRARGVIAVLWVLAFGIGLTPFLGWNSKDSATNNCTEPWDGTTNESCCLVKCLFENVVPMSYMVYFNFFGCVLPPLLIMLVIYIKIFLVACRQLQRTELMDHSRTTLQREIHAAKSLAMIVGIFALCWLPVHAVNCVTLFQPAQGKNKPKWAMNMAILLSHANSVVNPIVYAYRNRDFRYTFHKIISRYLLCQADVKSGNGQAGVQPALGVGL
# experimental.details: Competition Radioligand Binding Assay: A2B Adenosine Receptor: The binding assay for adenosine A2B receptor subtype was carried out on human recombinant source (HEK-293 cells) and [3H]DPCPX as radioligand.
readout.label: Ki

# Ki lookup, item COc1ccc(-c2nc(NC(=O)c3ccc(N4CCC(C(=O)O)CC4)nc3)sc2C#N)cc1
> 1 µM

---

# experimental.target: Adenosine receptor A2a (Homo sapiens)
# Sequence (P29274 whole entry): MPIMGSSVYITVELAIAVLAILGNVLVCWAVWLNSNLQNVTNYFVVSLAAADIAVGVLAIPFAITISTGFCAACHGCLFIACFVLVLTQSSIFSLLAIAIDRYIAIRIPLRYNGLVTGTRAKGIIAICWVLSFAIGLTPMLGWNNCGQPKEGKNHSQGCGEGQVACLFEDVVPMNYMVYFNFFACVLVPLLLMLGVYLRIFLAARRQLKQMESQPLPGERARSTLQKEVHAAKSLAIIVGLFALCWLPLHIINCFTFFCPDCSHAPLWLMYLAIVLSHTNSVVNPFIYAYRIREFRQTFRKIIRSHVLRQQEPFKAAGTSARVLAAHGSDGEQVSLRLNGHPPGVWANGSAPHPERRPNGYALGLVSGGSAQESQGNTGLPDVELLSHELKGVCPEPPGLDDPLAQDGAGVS
# experimental.details: Competition Radioligand Binding Assay: A2A Adenosine Receptor: Competitive assays were carried out by incubation of membranes from human A2A receptors transfected to HeLa cells, [3H]-ZM241385, buffer (Tris-HCl 50 mM (pH=7.4), 10 mM MgCl2, EDTA 1 mM and 2 units/ml adenosine deaminase), and unlabelled ligand in a total volume of 0.2 ml for 60 min at 25° C. NECA was used to determine nonspecific binding. It was filtered over Schleicher & Schuell GF/52 (presoaked with 0.5% polyethyleneimine) in a Brandel cell harvester. The unbound radioligand was removed with 3×250 μl of 20 mM Tris-HCl 50 mM (pH=7.4), 10 mM MgCl2, EDTA 1 mM.
pKi: −log10 of the molar value.
readout.label: pKi

Observed pKi on Adenosine receptor A2a (Homo sapiens) for COc1ccc(-c2nc(NC(=O)c3ccc(N4CCC(C(=O)O)CC4)nc3)sc2C#N)cc1 , please.
< 6.00
